assay: Serum testosterone pharmacokinetics after subcutaneous or OralJect transmucosal delivery (radioimmunoassay); format: in vivo, New Zealand White rabbit; conditions: female, New Zealand White, rabbit, serum; OralJect transmucosal, 2.0 mg; all animals
MEASUREMENT_LABEL: Tmax (min)
Please respond with the number in min and leave the unit unwritten.

Query block: Identify measured Tmax associated with C[C@]12CC[C@H]3[C@@H](CCC4=CC(=O)CC[C@@]43C)[C@@H]1CC[C@@H]2O [testosterone, Testosterone]
Result block: 30
